- target system: HIF-1 (HIF-1alpha/HIF-1beta (ARNT) heterodimer) (Homo sapiens?, UniProt Q16665;P27540 Q16665:1-826,P27540:2-789)
- Sequence (Q16665 whole entry, chain 1 of 2): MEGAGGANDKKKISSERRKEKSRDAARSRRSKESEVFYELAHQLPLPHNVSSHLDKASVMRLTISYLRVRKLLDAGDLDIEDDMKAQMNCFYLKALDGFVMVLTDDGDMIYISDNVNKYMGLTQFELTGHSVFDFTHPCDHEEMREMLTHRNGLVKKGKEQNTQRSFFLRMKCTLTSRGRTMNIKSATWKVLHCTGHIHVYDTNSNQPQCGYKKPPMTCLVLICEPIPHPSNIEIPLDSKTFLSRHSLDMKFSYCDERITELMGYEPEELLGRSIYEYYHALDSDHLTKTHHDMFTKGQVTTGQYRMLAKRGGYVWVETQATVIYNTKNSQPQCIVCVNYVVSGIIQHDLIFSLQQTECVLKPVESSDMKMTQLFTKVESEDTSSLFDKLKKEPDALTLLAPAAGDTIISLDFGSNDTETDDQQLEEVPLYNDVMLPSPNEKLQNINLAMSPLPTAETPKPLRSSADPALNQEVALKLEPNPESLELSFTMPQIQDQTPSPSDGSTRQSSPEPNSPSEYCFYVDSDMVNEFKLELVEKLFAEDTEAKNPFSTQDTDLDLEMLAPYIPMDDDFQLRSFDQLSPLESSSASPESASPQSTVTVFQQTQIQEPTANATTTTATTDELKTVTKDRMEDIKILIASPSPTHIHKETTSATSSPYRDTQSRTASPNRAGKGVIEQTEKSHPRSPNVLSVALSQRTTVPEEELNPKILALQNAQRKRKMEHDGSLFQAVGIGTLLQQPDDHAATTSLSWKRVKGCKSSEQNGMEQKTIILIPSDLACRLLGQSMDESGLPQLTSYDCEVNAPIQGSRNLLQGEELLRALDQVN
- Sequence (P27540 2-789, chain 2 of 2): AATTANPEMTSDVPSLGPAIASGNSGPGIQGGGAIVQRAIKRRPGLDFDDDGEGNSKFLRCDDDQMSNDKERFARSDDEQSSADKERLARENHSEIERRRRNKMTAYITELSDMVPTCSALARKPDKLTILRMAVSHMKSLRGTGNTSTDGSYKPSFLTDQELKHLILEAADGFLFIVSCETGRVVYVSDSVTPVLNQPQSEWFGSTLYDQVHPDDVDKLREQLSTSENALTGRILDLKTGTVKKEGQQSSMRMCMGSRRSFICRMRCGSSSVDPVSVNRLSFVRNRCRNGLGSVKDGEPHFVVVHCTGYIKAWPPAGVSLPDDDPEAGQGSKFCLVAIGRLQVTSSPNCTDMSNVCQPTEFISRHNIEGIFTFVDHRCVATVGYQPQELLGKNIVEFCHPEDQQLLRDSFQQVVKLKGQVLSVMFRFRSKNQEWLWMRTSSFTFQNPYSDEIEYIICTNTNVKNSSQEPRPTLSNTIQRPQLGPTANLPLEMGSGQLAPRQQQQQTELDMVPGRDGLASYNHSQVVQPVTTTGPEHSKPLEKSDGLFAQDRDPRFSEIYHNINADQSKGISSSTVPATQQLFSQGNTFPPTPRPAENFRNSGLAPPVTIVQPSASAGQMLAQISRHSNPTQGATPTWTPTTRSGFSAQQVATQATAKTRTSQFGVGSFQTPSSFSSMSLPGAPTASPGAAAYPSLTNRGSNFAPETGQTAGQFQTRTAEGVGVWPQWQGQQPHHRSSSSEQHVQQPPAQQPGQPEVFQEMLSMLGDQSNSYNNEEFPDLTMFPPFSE
- assay details: competition; TransAM
- condition: protein: extract; tags: none (endogenous, nuclear extract)
measured metric: binding signal (ratio)
Entry rule: numbers only, all in ratio.

Here are 2 binders together with their reported answers.
- binder: "decoy 825/826 (dsDNA) DNA 1: AGGAGACGTGCGAGAA DNA 2: TTCTCGCACGTCTCCT"
  units of measure: "ratio"
  binding signal: 5.1
- binder: "decoy 997 (dsDNA) DNA 1: CCGGGGCACGTGCCCCAGG DNA 2: CCTGGGGCACGTGCCCCGG"
  units of measure: "ratio"
  binding signal: 1.28

Proceeding to the next binder to report its binding signal.
Request: binding signal lookup needed for decoy 873/874 (dsDNA) DNA 1: TCCGTACGTGCTGCGT DNA 2: ACGCAGCACGTACGGA , thanks.
Result: 2.33

Data provenance is patent US20050215503.
